Biological target: p53 Y220C (Homo sapiens, UniProt P04637, Y220C)
Assay: Luciferase Reporter Assay (Luc), p53 response element, NClH1299 cells with inducible p53 Y220C
Type: cell-based
Details: luciferase reporter, NClH1299 inducible p53 Y220C, 6 hour; read-out: Luc P53 Y220C AC50
Give measured AC50 for each item. Keep answers brief.

Known results for compounds:
{"MOL": "COc1cc(C(=O)N(C)C)ccc1NCC#Cc1nc2c(N[C@@H]3CCN(C)C[C@@H]3F)cccn2c1CC(F)(F)F", "AC50": "1500 to 3000 nM"}
{"MOL": "CCOc1cc(C(=O)NC)ccc1NCC#Cc1nc2c(N[C@@H]3CCN(C)C[C@@H]3F)cccn2c1CC(F)(F)F", "AC50": "1500 to 3000 nM"}

// for each compound in input: emit AC50
1. COC[C@H](O)CN1CCC(Nc2cccn3c(CC(F)(F)F)c(C#CCNc4ccc(S(C)(=O)=O)cc4OC)nc23)CC1
2. CNC(=O)c1ccc(NCC#Cc2nc3c(N[C@@H]4CCN(C)C[C@@H]4F)cccn3c2SC(F)(F)F)cn1
3. CNC(=O)c1ccc(OC)c(NCC#Cc2nn3c(N[C@@H]4CCN(C)C[C@@H]4F)ccnc3c2SC(F)(F)F)c1
4. CNC(=O)c1ccc(OC)c(NCC#Cc2nc3c(N[C@@H]4CCNC[C@@H]4F)cccn3c2SC(F)(F)F)c1
5. CNC(=O)c1c[nH]nc1NCC#Cc1nc2c(N[C@@H]3CCN(C)C[C@@H]3F)cccn2c1SC(F)(F)F
6. COc1cc2c(cc1NCC#Cc1nc3c(N[C@@H]4CCN(C)C[C@@H]4F)cccn3c1SC(F)(F)F)CNC2=O

Result:
1: 1500 to 3000 nM; 2: < 750 nM; 3: > 3000 nM; 4: < 750 nM; 5: < 750 nM; 6: < 750 nM

// for each compound in input: emit AC50
1. CNC(=O)c1ccc(NCC#Cc2nc3c(N[C@@H]4CCN(C)C[C@@H]4F)cc(F)cn3c2SC(F)(F)F)c(OC)c1
2. COc1cc(S(C)(=O)=O)ccc1NCC#Cc1nc2c(N[C@@H]3CCN(C)C[C@@H]3F)cccn2c1CC(F)(F)F
3. COc1cc(S(C)(=O)=O)ccc1NCC#Cc1nc2c(NC3CCN(C(C)=O)CC3)cccn2c1CC(F)(F)F
4. CNC(=O)c1ccc(N[C@@H](C)C#Cc2nc3c(N[C@@H]4CCN(C)C[C@@H]4F)cccn3c2SC(F)(F)F)c(OC)c1
5. COc1cc2c(cc1NCC#Cc1nc3c(N[C@@H]4CCN(C)C[C@@H]4F)cccn3c1SC(F)(F)F)C(=O)NC2
6. CNC(=O)c1ccc(NCC#Cc2cc3c(N[C@@H]4CCN(C)C[C@@H]4F)cccn3c2SC(F)(F)F)c(OC)c1

Result:
< 750 nM
750 to 1500 nM
> 3000 nM
> 3000 nM
< 750 nM
< 750 nM

// for each compound in input: emit AC50
1. CNC(=O)c1ccc(OC)c(NCC#Cc2nc3c(N[C@@H]4CCN(C)C[C@@H]4F)cccn3c2SC(F)(F)F)c1
2. CN1CC[C@@H](Nc2cccn3c(CC(F)(F)F)c(C#CC(C)(C)O)nc23)[C@@H](F)C1
3. COc1ccc(C(=O)NC2CC2)cc1NCC#Cc1nc2c(N[C@@H]3CCN(C)C[C@@H]3F)cccn2c1SC(F)(F)F
4. CNC(=O)c1ccc(NCC#Cc2nc3c(N[C@@H]4CCC(=O)N(C)C4)cccn3c2SC(F)(F)F)c(OC)c1
5. CNC(=O)c1ccc(NCC#Cc2nc3c(N[C@@H]4C[C@H]5CC[C@@H]([C@@H]4F)N5C)cccn3c2SC(F)(F)F)c(OC)c1

Result:
1: < 750 nM; 2: > 3000 nM; 3: < 750 nM; 4: 750 to 1500 nM; 5: < 750 nM

// for each compound in input: emit AC50
1. CNC(=O)Nc1cc(NC2CCN(C)CC2)c2nc(C#CCNc3ccc(C(=O)NC)cc3OC)c(CC(F)(F)F)n2c1
2. CNC(=O)c1ccc(NCC#Cc2nc3c(N[C@@H]4CCN(C)C[C@@H]4F)cccn3c2CC(F)(F)F)c(OCC(F)(F)F)c1
3. CC#Cc1nc2c(NC3CCN(C)CC3)cccn2c1CC(F)(F)F

Result:
["> 3000 nM", "750 to 1500 nM", "> 3000 nM"]

* * *

Tested on: H1299 p53 R273H
Test: Cell Proliferation Assay (CellTiter-Glo, CTG), H1299 p53 R273H (NClH1299-inducible p53 R273H)
Assay type: cell-based
Conditions: Homo sapiens, NCI-H1299, 120 h, CellTiter-Glo, H1299 p53 R273H, 5 days
Experimental: Inducible p53 Y220C and R273H constructs (Tet-One inducible expression system; Takara) were stably expressed in NClH1299 cells by lentiviral transduction. NUGC3, A549, BxPC3, T3M4, HuH7, HCC2935, MFE296, NClH1299, NClH1299-inducible p53 Y220C, and NClH1299-inducible p53 R273H cell lines were used for cell proliferation assay. […] The luminescent signal was measured by PheraStar microplate reader and IC50 was calculated.
pIC50: −log10 of the molar value.
PROPERTY_NAME: pIC50

Known results for compounds:
{"MOL": "C[C@H](O)C#Cc1nc2c(N[C@@H]3CCN(C)C[C@@H]3F)cccn2c1CC(F)(F)F", "pIC50": "≤ 5.00"}
{"MOL": "CNC(=O)c1cc(NCC#Cc2nc3c(N[C@@H]4CCN(C)C[C@@H]4F)cccn3c2SC(F)(F)F)c(OC)cn1", "pIC50": "≤ 5.00"}
{"MOL": "CNC(=O)c1ccc(NCC#Cc2nc3c(N[C@H]4CCN(C)C(=O)C4)cccn3c2SC(F)(F)F)c(OC)c1", "pIC50": "≤ 5.00"}
{"MOL": "COCCN1CCC(Nc2cccn3c(CC(F)(F)F)c(C#CCNc4ccc(S(C)(=O)=O)cc4OC)nc23)CC1", "pIC50": "5.10 to 5.30"}
{"MOL": "CCc1c(C#CCNc2ccc(S(C)(=O)=O)cc2OC)nc2c(NC3CCN(C)CC3)cccn12", "pIC50": "5.10 to 5.30"}
{"MOL": "CNC(=O)c1ccc(OC)c(NCC#Cc2nc3c(N[C@@H]4CNC[C@@H]4F)cccn3c2SC(F)(F)F)n1", "pIC50": "5.10 to 5.30"}

// for each compound in input: emit pIC50
1. CNC(=O)c1ccc(OC)c(NCC#Cc2nc3c(N[C@@H]4CCN(C)C[C@@H]4F)cccn3c2CC(F)(F)F)n1
2. COC(=O)N1CCC(Nc2cccn3c(CC(F)(F)F)c(C#CCNc4ccc(S(C)(=O)=O)cc4OC)nc23)CC1
3. CNC(=O)c1ccc(NCC#Cc2cc3c(N[C@@H]4CCN(C)C[C@@H]4F)nccn3c2SC(F)(F)F)c(OC)c1
4. CN1CC[C@@H](Nc2cccn3c(CC(F)(F)F)c(C#CC(C)(C)O)nc23)[C@@H](F)C1

Result:
1: ≤ 5.00; 2: ≤ 5.00; 3: 5.00 to 5.10; 4: ≤ 5.00

// for each compound in input: emit pIC50
1. CCc1cc(C(=O)NC)ccc1NCC#Cc1nc2c(N[C@@H]3CCN(C)C[C@@H]3F)cccn2c1CC(F)(F)F
2. CCOc1cc(C(=O)NC)ccc1NCC#Cc1nc2c(N[C@@H]3CCN(C)C[C@@H]3F)cccn2c1SC(F)(F)F
3. CNC(=O)c1ccc(OC)c(NCC#Cc2nc3c(N[C@@H]4CCN(C)C[C@@H]4F)nccn3c2SC(F)(F)F)c1
4. CNC(=O)c1cc(OC)c(NCC#Cc2nc3c(N[C@@H]4CCN(C)C[C@@H]4F)cccn3c2SC(F)(F)F)cn1

Result:
1. ≤ 5.00
2. 5.00 to 5.10
3. ≤ 5.00
4. ≤ 5.00

* * *

Target: p53 Y220C mutant protein (amino acid residues 94-293) (Homo sapiens, UniProt P04637, Y220C)
Construct: p53 Y220C mutant protein (amino acid residues 94-293)
Sequence (P04637 94-293, stated change not applied): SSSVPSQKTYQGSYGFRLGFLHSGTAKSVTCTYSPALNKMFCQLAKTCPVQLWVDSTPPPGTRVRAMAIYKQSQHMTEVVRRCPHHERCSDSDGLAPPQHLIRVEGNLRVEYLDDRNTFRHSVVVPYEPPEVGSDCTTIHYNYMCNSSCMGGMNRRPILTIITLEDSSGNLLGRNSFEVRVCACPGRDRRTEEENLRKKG
Experiment: Surface Plasmon Resonance (SPR) assay, Kd_kinetic
Type: binding
Settings: SPR, kinetic KD, p53 Y220C; read-out: SPR P53 Y220C KD kinetic
pKd: −log10 of the molar value.
PROPERTY_NAME: pKd

Known results for molecules:
{"MOL": "CNC(=O)c1ccc(NCC#Cc2nc3c(NCC4(F)CNC4)cccn3c2SC(F)(F)F)c(OC)c1", "pKd": "7.00 to 8.00"}
{"MOL": "CNC(=O)N1CCC(Nc2cccn3c(CC(F)(F)F)c(C#CCNc4ccc(S(C)(=O)=O)cc4OC)nc23)CC1", "pKd": "7.00 to 8.00"}
{"MOL": "CNC(=O)c1cc(NCC#Cc2nc3c(N[C@@H]4CCN(C)C[C@@H]4F)cccn3c2SC(F)(F)F)c(OC)cn1", "pKd": "> 8.00"}

Request: Field request: pKd | item: CCOc1c(C#CCNc2ccc(C(=O)NC)cc2OC)nc2c(N[C@@H]3CCN(C)C[C@@H]3F)cccn12
Result: 6.00 to 7.00
